System: P388 leukemia ip, CD2F1 mice, survival T/C
testSummary: NCI In Vivo Anticancer Drug Screen. Data for tumor model P388 Leukemia (intraperitoneal) in CD2F1 (CDF1) mice
measurementConditions: endpoint: median survival time; dose: 12.5 mg/kg/injection; schedule: Q01DX005 (ip); vehicle: saline with Tween-80
Description: The antitumor activity of compounds was measured in mice bearing transplantable tumors. Survival or tumor size were measured and the results are expressed as the measurement made in the treated group (T) divided by the measurement made in the vehicle treated control group (C). The tumor model used in this assay is P388 Leukemia (intraperitoneal) in CD2F1 (CDF1) mice
Inconclusive results and toxic doses are left out. The calls were made as follows: active = survival T/C of 150% or more; inactive = T/C below 125% in these data.
Outcomes: True (active), False (inactive)

molecule	subjectOfTest	classLabel
CCOC(=O)c1sc(=S)n(C)c1C	P388 leukemia ip, CD2F1 mice, survival T/C	False
CCOc1cc(CC[N+](C)(C)C)cc2c1ccc1ccc(OC)c(OC)c12	P388 leukemia ip, CD2F1 mice, survival T/C	False
C#CC(C)(CC(C)C)OCCN(CC)CC (centres undefined)	P388 leukemia ip, CD2F1 mice, survival T/C	False
C/C(=N\NC(=S)N1CCN(Cc2ccccc2)CC1)c1ccccn1	P388 leukemia ip, CD2F1 mice, survival T/C	True
COC(=O)C(CCCCNC(=O)OCc1ccccc1)NC(=O)C(CCCCNC(=O)OCc1ccccc1)NC(=O)OC(C)(C)C (centres undefined)	P388 leukemia ip, CD2F1 mice, survival T/C	False
C/C(=N/NC(=S)NCc1ccccc1)c1ncccn1	P388 leukemia ip, CD2F1 mice, survival T/C	False
CC(=O)NCCn1nc(-c2ccc(Cl)cc2)c(-c2ccc(Cl)cc2)c(C(C)=O)c1=O	P388 leukemia ip, CD2F1 mice, survival T/C	False
COc1ccc(-c2coc3c4c(c(CC=C(C)C)c(OC)c3c2=O)OC(C)(C)C=C4)cc1OC	P388 leukemia ip, CD2F1 mice, survival T/C	False
N#CC(OC(=O)c1ccccc1)C(OC(=O)c1ccccc1)C(OC(=O)c1ccccc1)C(COC(=O)c1ccccc1)OC(=O)c1ccccc1 (centres undefined)	P388 leukemia ip, CD2F1 mice, survival T/C	False

* * *

Some compounds, each annotated with its measured T/C.
Test system: P388 leukemia ip, CD2F1 mice, survival T/C
testSummary: NCI In Vivo Anticancer Drug Screen. Data for tumor model P388 Leukemia (intraperitoneal) in CD2F1 (CDF1) mice
measurementConditions: endpoint: median survival time; dose: 50.0 mg/kg/injection; schedule: Q01DX001 (ip); vehicle: Klucel (hydroxypropylcellulose) (HPC); higher = longer survival
Toxic doses and inconclusive results are not listed.

compound	T/C
Cc1nc2n(c1/C=N/O)CCS2	90 % of control
Cn1c(Cl)c(/C=N\Nc2ccc([N+](=O)[O-])cc2)c2ccccc21	89 % of control
COc1ccc2c(c1OC)C(=O)OC2C1c2cc3c(cc2CC[N+]1(C)C)OCO3 (stereo not given)	87 % of control
CC1Cc2c([nH]c(=O)n(-c3ccccc3)c2=S)O1 (stereo not given)	112 % of control
c1cc2ccc3ccc4ccc5ccc6ccc1c1c2c3c4c5c61	96 % of control
CCn1c(Cl)c(/C=N/NS(=O)(=O)c2ccc(C)cc2)c2cccc(/C=N\NS(=O)(=O)c3ccc(C)cc3)c21	99 % of control
Cc1cc(C(=O)NCCc2ccc(S(=O)(=O)NC(=O)NCC3CC4CCC3C4)cc2)no1 (stereo not given)	106 % of control
C[C@]12CCC(=O)C=C1CC[C@@H]1[C@@H]2CC[C@@]2(C)[C@H]1CCCN2CCO	103 % of control
O=[N+]([O-])c1cccc(N/N=C\c2c(Cl)[nH]c3ccccc23)c1	89 % of control
O=C(O)c1c(Cl)nc2n1CCS2	97 % of control

* * *

System: P388 leukemia ip, CD2F1 mice, survival T/C
testSummary: NCI In Vivo Anticancer Drug Screen. Data for tumor model P388 Leukemia (intraperitoneal) in CD2F1 (CDF1) mice
measurementConditions: endpoint: median survival time; dose: 12.5 mg/kg/injection; schedule: Q04DX003 (ip); vehicle: saline; higher = longer survival
Toxic doses and inconclusive results are not listed.
propertyName: T/C

compound	result
COC(=O)/C=C\C=C(\CBr)C(=O)OC	110 % of control
CN=C1N[N+]2=CCCCC2S1 (stereo not drawn)	102 % of control
N=C(N)c1ccc(NC(=O)c2cc3ccc(C(=N)N)cc3o2)cc1	101 % of control
CC1(C)CN(c2ccccc2)N(CO)C1=O	109 % of control
CCN1CCC(C2(C(=O)OC)c3ccccc3-c3ccccc32)C1 (stereo not drawn)	108 % of control
CC1(C)CC([N+](C)(C)CCCCCC[N+](C)(C)C2CC(C)(C)N(O)C(C)(C)C2)CC(C)(C)N1O	105 % of control
COc1cc2c[n+](C)c(-c3ccc(Cl)c(Cl)c3)c(OC)c2cc1OC	101 % of control
CCC1CC(C)C(=O)NC1=O (stereo not drawn)	100 % of control

* * *

System: P388 leukemia ip, CD2F1 mice, survival T/C
testSummary: NCI In Vivo Anticancer Drug Screen. Data for tumor model P388 Leukemia (intraperitoneal) in CD2F1 (CDF1) mice
measurementConditions: endpoint: median survival time; dose: 200.0 mg/kg/injection; schedule: Q01DX009 (ip); vehicle: saline with Tween-80; higher = longer survival
Toxic doses and inconclusive results are not listed.
Some molecules, each annotated with its measured T/C.
propertyName: T/C

molecule	subjectOfTest	result
O=C(N=C=S)c1ccc(Cl)c(Cl)c1	P388 leukemia ip, CD2F1 mice, survival T/C	103 % of control
CC(NCNc1ccc2ccccc2c1)C(=O)O (configuration not stated)	P388 leukemia ip, CD2F1 mice, survival T/C	98 % of control
O/N=C/c1ccc2c(c1)OCO2	P388 leukemia ip, CD2F1 mice, survival T/C	87 % of control
COc1ccc2c(c1)CC(CN1CCC3(CC1)C(=O)NCN3c1ccccc1)O2 (configuration not stated)	P388 leukemia ip, CD2F1 mice, survival T/C	100 % of control
COC(=O)/C=C/C=C/c1ccco1	P388 leukemia ip, CD2F1 mice, survival T/C	89 % of control
Oc1c(CN2CCOCC2)cc(CN2CCOCC2)cc1CN1CCOCC1	P388 leukemia ip, CD2F1 mice, survival T/C	100 % of control
CC(C)(C)CC(C)(C)c1ccc(OCc2cccc(F)c2)cc1	P388 leukemia ip, CD2F1 mice, survival T/C	100 % of control
CCCCCCCCCCCCCCCCS(=O)(=O)N/N=C(/c1ccccc1Cl)N1CCOCC1	P388 leukemia ip, CD2F1 mice, survival T/C	94 % of control
O=C(OC1CC2CCC1C2)c1cc([N+](=O)[O-])cc([N+](=O)[O-])c1 (configuration not stated)	P388 leukemia ip, CD2F1 mice, survival T/C	90 % of control
Clc1ccc(Oc2ccc(N3C=Nc4ccc(Oc5ccc(Cl)cc5)cc4C3)cc2)cc1	P388 leukemia ip, CD2F1 mice, survival T/C	100 % of control
O=C(CCl)Nc1ccc(Cl)cc1C(=O)c1ccccc1	P388 leukemia ip, CD2F1 mice, survival T/C	104 % of control
CCCCOCN(COCCCC)c1ccccn1	P388 leukemia ip, CD2F1 mice, survival T/C	116 % of control

* * *

Tested on: P388 leukemia ip, CD2F1 mice, survival T/C
testSummary: NCI In Vivo Anticancer Drug Screen. Data for tumor model P388 Leukemia (intraperitoneal) in CD2F1 (CDF1) mice
measurementConditions: endpoint: median survival time; dose: 7.5 mg/kg/injection; schedule: Q01DX005 (ip); vehicle: saline with Tween-80; higher = longer survival
Inconclusive results and toxic doses are left out.
propertyName: T/C

chemicalSmiles	propertyName	result
COc1cccc2c1C(=O)c1c(O)c(CCl)cc(O)c1C2=O	T/C	92 % of control
COc1ccc(N=N/N=c2\sc3cc(OC)ccc3n2C)cc1	T/C	113 % of control
O=C([Se]c1[se]c(=[Se])[se]c1[Se]C(=O)c1ccccc1)c1ccccc1	T/C	97 % of control
Cc1cc(C)c(S(=O)(=O)N/N=C(\CBr)c2ccccc2)c(C)c1	T/C	97 % of control
O=C(NCCCl)N1CCC(CN=c2cc3n(-c4ccc(Cl)cc4)c4ccccc4nc-3cc2Nc2ccc(Cl)cc2)CC1	T/C	88 % of control
CN(C)c1ccc(C(c2c(O)c3ccccc3oc2=O)c2c(O)c3ccccc3oc2=O)cc1	T/C	91 % of control
N#CC(=O)Nc1ccc(Cl)cc1	T/C	111 % of control

* * *

System: P388 leukemia ip, CD2F1 mice, survival T/C
testSummary: NCI In Vivo Anticancer Drug Screen. Data for tumor model P388 Leukemia (intraperitoneal) in CD2F1 (CDF1) mice
measurementConditions: endpoint: median survival time; dose: 50.0 mg/kg/injection; schedule: Q04DX003 (ip); vehicle: saline; higher = longer survival
Method: The antitumor activity of compounds was measured in mice bearing transplantable tumors. Survival or tumor size were measured and the results are expressed as the measurement made in the treated group (T) divided by the measurement made in the vehicle treated control group (C). The tumor model used in this assay is P388 Leukemia (intraperitoneal) in CD2F1 (CDF1) mice
Toxic doses and inconclusive results are not listed.
propertyName: T/C

molecule	result
CCC1=[N+](C)c2ccccc2C1(C)C	99 % of control
CCS/C(N)=C(\C#N)C(SCC)(SCC)SCC	107 % of control
COc1ccc2c(c1OC(C)=O)-c1cc(O)cc3c1C(C2)N(C(=O)CN(CCCl)CCCl)CC3 (centres undefined)	87 % of control
Nc1nc2c(ncn2C2OC(CO)C(O)C2N)c(=O)[nH]1 (centres undefined)	104 % of control
